Data origin: patent US20120082659A1

substances and their reported % Change in Tumor Volume (Perturbed vs. Control)
# System: mp53/Ras cells
# protocol_text: Xenograft tumor formation by mp53/Ras cells in nude mice
# Assay type: in vivo, mouse
# condition_label: mp53/Ras cells with gene perturbation, s.c. in nude mice, 4 weeks, vs matched vector control
readout_label: % Change in Tumor Volume (Perturbed vs. Control) (%)

substance	units_label	value_reported
Plac8: shRNA-dependent stable knock-down of up-regulated CRG Plac8 (retroviral) (sense CTGGCAGACCAGCCTGTGTTT; the letters are possibly those of the target site)	%	−100
Slc14a1: shRNA-dependent stable knock-down of up-regulated CRG Slc14a1 (retroviral) (sense TCCTGATTCTGGTGGGACT; the letters are possibly those of the target site)	%	180
Sod3: shRNA-dependent stable knock-down of up-regulated CRG Sod3 (retroviral) (sense GGCGACACGCATGCCAAAG; target site or template, no part of the molecule)	%	−72
Rgs2: shRNA-dependent stable knock-down of up-regulated CRG Rgs2 (retroviral) (sense GCGCAGCTCTGGGCAGAAG; the letters are possibly those of the target site)	%	−60
